Where these numbers come from: PubChem BioAssay

Can you tell me SSMD for the items I'm about to list?
Experiment Description: compounds altering HSF1 focus formation in cells – imaging, Selleck Cancer Library (AID 1347162)
Applied Conditions: human cells, HSF1 nuclear foci imaging, at 10 µM; measured here: HSF1 foci SSMD mean
Answers are plain numbers.

Examples with answers:
Structure Notation | Quantity | Experimental Value
O=C(NC1CCNCC1)c1[nH]ncc1NC(=O)c1c(Cl)cccc1Cl | SSMD | -4.94
Cn1cc(-c2ccc3nnc(C(F)(F)c4ccc5ncccc5c4)n3n2)cn1 | SSMD | 2.73

// each compound listed below needs its SSMD
1. Cc1ccc(C(=O)Nc2ccc(CN3CCN(C)CC3)c(C(F)(F)F)c2)cc1C#Cc1cnc2cccnn12
2. OCCn1cc(-c2cnc3nnn(Cc4ccc5ncccc5c4)c3n2)cn1
3. CC1(COc2ccc3c(c2)ncn3-c2ccc3cccc(N4CCC(N)CC4)c3n2)COC1

Result:
1: 1.5; 2: 2.68; 3: -2.3

Task: Need SSMD of `Nc1cc(C(F)(F)F)c(-c2cc(N3CCOCC3)nc(N3CCOCC3)n2)cn1` , thanks.
Result: -2.85

====

Experiment Description: viability loss in pontine glioma line – cell-based, SU-DIPG-XIII, MIPE4.0, CellTiter-Glo, qHTS, dose response (AID 1347061);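 further: cells exposed to compound for 48 hours before readout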
Applied Conditions: CellTiter-Glo ATP luminescence
Records with an inconclusive call do not appear. Active and inactive are the calls of the source. Cut-off not given; nearly all actives show AC50 up to about 37 µM.
Quantity: AC50

Below, 4 molecules whose answers are already recorded.
Molecule | AC50
CC1(C)C(N(O)C(=O)Nc2ccc(Cl)cc2)N(c2ccc(Cl)cc2)C(=O)N1CC(=O)N/N=C/C=C/c1ccc([N+](=O)[O-])o1 (stereo not given) | 26.4 µM (active)
CN(C)C/C=C/C(=O)Nc1cc2c(Nc3ccc(F)c(Cl)c3)ncnc2cc1O[C@H]1CCOC1 | 23.5 µM (active)
Cc1c(CN2CCN(S(C)(=O)=O)CC2)sc2c(N3CCOCC3)nc(-c3cnc(N)nc3)nc12 | 0.332 µM (active)
O=C(N[C@@H](c1ccccc1)[C@@H]1CCCCN1)c1cccc(C(F)(F)F)c1Cl | inactive

Go through the items and report each one's AC50.
1. COc1cc2ncnc(-n3nc(-c4ccccn4)nc3N)c2cc1OC
2. O=C(c1cncc(Br)c1)N1CCC(N2CCCC2)CC1
3. O=C(O)Cn1nnc(-c2cc(N3CCC(Oc4cc(F)ccc4Br)CC3)no2)n1
4. COC(=O)N1CCN(Cc2cccc(NC(=O)Nc3ccc(C)nc3)c2F)CC1

Result:
1. 23.5 µM (active)
2. inactive
3. inactive
4. inactive

Please go through the list and note AC50 for each molecule.
1. CC1(C)OC2=C(C(=O)c3ccccc3C2=O)[C@H](NCc2ccccc2)[C@@H]1O
2. COc1cc(CCc2cc(NC(=O)c3ccc(N4C[C@@H](C)N[C@@H](C)C4)cc3)n[nH]2)cc(OC)c1
3. OC[C@H]1OC(O)C[C@@H](O)[C@@H]1O (stereo not given in full)
4. O=C1c2cccc(O)c2C(=O)c2c(O)cc(CO)cc21
5. Cc1cnc(Nc2ccc(F)cc2Cl)nc1-c1c[nH]c(C(=O)N[C@H](CO)c2cccc(Cl)c2)c1
6. COc1cc2c(cc1-c1c(C)noc1C)ncc1[nH]c(=O)n([C@H](C)c3ccccn3)c12
7. CO[C@@H](C(=O)N1Cc2[nH]nc(NC(=O)c3ccc(N4CCN(C)CC4)cc3)c2C1)c1ccccc1
8. O=C(NOCC(O)CO)c1cc(Br)c(F)c(F)c1Nc1ccc(I)cc1F (stereo not given)

Result:
1: 5.9 µM (active); 2: 8.33 µM (active); 3: inactive; 4: inactive; 5: 18.7 µM (active); 6: 10.5 µM (active); 7: 1.87 µM (active); 8: 2.64 µM (active)

Batch: AC50 for all items listed.
1. CC(=O)C1=C(O)C=C2Oc3c(C(C)=O)c(O)c(C)c(O)c3C2(C)C1=O (stereo not given)
2. COc1ccc2c(OCc3nnc4ccc(-c5ccccc5)nn34)ccnc2c1
3. CC1=C(C(=O)Nc2cc3cn[nH]c3cc2F)C(c2ccc(C(F)(F)F)cc2)CC(=O)N1 (stereo not given)
4. CCCCc1ccc(NS(=O)(=O)c2ccc(C)c(C(=O)N3CCN(c4cccc(C)c4C)CC3)c2)cc1
5. Nc1nc(F)nc2c1ncn2[C@@H]1O[C@H](CO)[C@@H](O)[C@H]1O

Result:
inactive
inactive
inactive
inactive
1.05 µM (active)

Give me AC50 for each of these molecules, listed below.
1. COc1cc2nc(N3CCCN(C)CC3)nc(NC3CCN(Cc4ccccc4)CC3)c2cc1OC
2. Cc1ccc(C(C)(O)c2nc3ccccc3s2)c(C)c1 (stereo not given)
3. COc1cc(Nc2ncc(F)c(Nc3ccc4c(n3)N(COP(=O)(O)O)C(=O)C(C)(C)O4)n2)cc(OC)c1OC
4. CC1(C)C(=O)N(CCN2CCC(C(=O)c3ccc(F)cc3)CC2)c2ccccc21
5. COc1ccc(-c2cc3c(C)nc(N)nc3n(C3CCC(OCCO)CC3)c2=O)cn1 (stereo not given)
6. C[Se]CCC(N)C(=O)O (stereo not given)

Result:
26.4 µM (active)
inactive
1.87 µM (active)
inactive
0.418 µM (active)
inactive
